- assay.method.text: parental Ba/F3 cell viability inhibition, counter-screen for JAK2V617F inhibitor project, murine pro-B, CellTiter-Glo luminescence (AID 1486);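 also: 0% = DMSO wells and 100% = JAK Inhibitor I control wells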
- study.conditions: CellTiter-Glo ATP luminescence, at 5.6 µM, hits give high values
Screen size: about 220,000 compounds; about 2,400 (1.1%) were called active. The sample as a whole holds a higher share of actives than the screen did.
Please respond with reported inhibition for every item in the list.
# output: bare number, implied unit %

Reported inhibition for `O=C(CN1CCCCC1)Nc1ccccc1Cl` : what is it?
5.49

Reported inhibition for `Cc1cc(C)c(C(N)=O)c(Cl)n1` : what is it?
1.66

Reported inhibition for `CN(CC(=O)NC1CCCC1)S(=O)(=O)c1cnc[nH]1` : what is it?
-0.47

Reported inhibition for `CN(C)S(=O)(=O)c1ccc(C(=O)NCC(C)(C)N2CCOCC2)cc1` : what is it?
0.19

Reported inhibition for O=C(Nc1ccccc1Cl)/C(Cl)=C(\Cl)S(=O)c1ccccc1 (configuration not stated) : what is it?
104

Reported inhibition for `Cc1ccc(Oc2nc(-c3ccccn3)nc3ccccc23)cc1` : what is it?
-1.39

Reported inhibition for `COc1ccc(-n2nnnc2SCC(=O)NCc2cccs2)cc1` : what is it?
7.65

Reported inhibition for Cc1ncoc1C(=O)N1CCCC(C(=O)c2ccc3c4c(cccc24)CC3)C1 (configuration not stated) : what is it?
5.56

Reported inhibition for `COc1cc(OC)nc(S(C)(=O)=O)n1` : what is it?
-0.84

Reported inhibition for `O=C(CNS(=O)(=O)c1ccccc1)NCC(=O)OCc1ccccc1F` : what is it?
8.12

Reported inhibition for `CN(CC(=O)Nc1cccc(F)c1)CC(=O)Nc1cccc([N+](=O)[O-])c1` : what is it?
3.37

Reported inhibition for `O=C(O)CCC(=O)Nc1nc2ccc([N+](=O)[O-])cc2s1` : what is it?
3.87
